Value source: PubChem BioAssay AID1902

# testedOn: S. pyogenes SKKanGAS, kanamycin survival, BacTiterGlo, 6 h
# assayMethodText: S. pyogenes SKKanGAS kanamycin growth inhibitors – SKKanGAS strain, luminescence, dose confirmation, streptokinase promoter inhibitor project, dose response (AID 1902);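 also: lower survival reflects blocked streptokinase promoter driving kanamycin resistance gene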
The source made the active and inactive calls.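 The calls were made as follows: active = EC50 no more than a set limit of log units above the highest dose; inactive = the rest.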
Entries and their measured EC50 follow.

compound: CCC(C)Sc1cccc(-c2nc3ccc(C)cn3c2NCc2ccccc2)c1 (stereo not given)
testedOn: S. pyogenes SKKanGAS, kanamycin survival, BacTiterGlo, 6 h
EC50: 3240 nM
--
compound: CC[C@@H](C)[C@H](CNC)NC[C@@H](Cc1cccc2ccccc12)NCCc1cccc(C(F)(F)F)c1
testedOn: S. pyogenes SKKanGAS, kanamycin survival, BacTiterGlo, 6 h
EC50: 2440 nM
--
compound: COCCNC(=O)c1c(NC(=O)c2ccco2)n(Cc2ccccc2)c2nc3ccccc3nc12
testedOn: S. pyogenes SKKanGAS, kanamycin survival, BacTiterGlo, 6 h
EC50: 8510 nM
--
compound: CCOc1ccc(NC(=S)N=Nc2c(O)[nH]c3ccccc23)cc1
testedOn: S. pyogenes SKKanGAS, kanamycin survival, BacTiterGlo, 6 h
EC50: 525 nM
--
compound: COCc1cc(=O)[nH]c(Nc2nc3ccc(C)cc3o2)n1
testedOn: S. pyogenes SKKanGAS, kanamycin survival, BacTiterGlo, 6 h
EC50: 2260 nM
--
compound: COc1cc(/C=N/Nc2nc3ccccc3s2)cc([N+](=O)[O-])c1O
testedOn: S. pyogenes SKKanGAS, kanamycin survival, BacTiterGlo, 6 h
EC50: 8930 nM
--
compound: CCN1CCN(C(c2ccc(C(F)(F)F)cc2)c2ccc3cccnc3c2O)CC1 (stereo not given)
testedOn: S. pyogenes SKKanGAS, kanamycin survival, BacTiterGlo, 6 h
EC50: 1820 nM
--
compound: Cc1cc(O)c(NC(=S)NC(=O)c2ccc(-c3ccc(Cl)cc3)o2)cc1C
testedOn: S. pyogenes SKKanGAS, kanamycin survival, BacTiterGlo, 6 h
EC50: 760 nM
--
compound: COc1ccccc1OCC(=O)Nc1c2c(nn1-c1ccc(F)cc1)CS(=O)(=O)C2
testedOn: S. pyogenes SKKanGAS, kanamycin survival, BacTiterGlo, 6 h
EC50: > 15000 nM (inactive)
--
compound: COc1ccc2ccc3c(c2c1)N=C[C@]1(O3)N(C)c2ccccc2C1(C)C
testedOn: S. pyogenes SKKanGAS, kanamycin survival, BacTiterGlo, 6 h
EC50: 1400 nM
--
compound: NS(=O)(=O)c1ccc(N/N=C2/CCCCC2C2CCCCC2)c([N+](=O)[O-])c1 (stereo not given)
testedOn: S. pyogenes SKKanGAS, kanamycin survival, BacTiterGlo, 6 h
EC50: 3110 nM
--
compound: CCC(C)Sc1cc(-c2nc3ccccn3c2NC2CCCCC2)ccc1OC (stereo not given)
testedOn: S. pyogenes SKKanGAS, kanamycin survival, BacTiterGlo, 6 h
EC50: 2940 nM
--
compound: COc1cccc(CC(=O)OCC(=O)Nc2nnc(-c3ccccc3)o2)c1
testedOn: S. pyogenes SKKanGAS, kanamycin survival, BacTiterGlo, 6 h
EC50: 4580 nM
--
compound: CC12CCC(C(=O)N(CSC(=S)N/N=C\c3ccccc3O)C1=O)C2(C)C (stereo not given)
testedOn: S. pyogenes SKKanGAS, kanamycin survival, BacTiterGlo, 6 h
EC50: 2550 nM
--
compound: Cc1ccc2[nH]c(O)c(N=NC(=O)c3ccc(NS(=O)(=O)c4cccs4)cc3)c2c1
testedOn: S. pyogenes SKKanGAS, kanamycin survival, BacTiterGlo, 6 h
EC50: 1250 nM
